Listed below: relative IC50 values for each entry.
Test system: NK-YS (IL-2 2.5 ng/mL)
testMethodNotes: relative IC50 (inflection point of fitted viability curve, relative to fitted max inhibition); higher = less sensitive
conditionSummary: 72 h
Give the number; nM is assumed, so skip it.

Consider the worked cases shown below.
molecule: C1=N/C2=N/c3ccc(OCCN4CCCC4)c(c3)COC/C=C/COCc3cccc(c3)C(=C1)N2 [Pacritinib]
unitsLabel: nM
measValue: 982
--
molecule: COc1ccccc1S(=O)(=O)Nc1ccc2c(c1)CN(C)C(=O)N2 [PFI-1]
unitsLabel: nM
measValue: 1310
--
molecule: NC(=O)c1cccc2cn(-c3ccc([C@@H]4CCCNC4)cc3)nc12 [Niraparib]
unitsLabel: nM
measValue: 1490
--
molecule: CNCc1ccc(-c2[nH]c3cc(F)cc4c3c2CCNC4=O)cc1 [Rucaparib]
unitsLabel: nM
measValue: 2000
--
molecule: CCOc1cc2ncc(C#N)c(Nc3ccc(F)c(Cl)c3)c2cc1NC(=O)/C=C/CN(C)C [Pelitinib]
unitsLabel: nM
measValue: 820
--
molecule: CN[C@@H]1C[C@H]2O[C@@](C)([C@@H]1OC)n1c3ccccc3c3c4c(c5c6ccccc6n2c5c31)C(=O)N[C@H]4O [UCN-01]
unitsLabel: nM
measValue: 51.1
--
molecule: CC(C)n1nc(-c2ccc3oc(N)nc3c2)c2c(N)ncnc21 [INK128]
unitsLabel: nM
measValue: 51
--
molecule: CN1CCN(CCOc2cc(OC3CCOCC3)c3c(Nc4c(Cl)ccc5c4OCO5)ncnc3c2)CC1 [Saracatinib]
unitsLabel: nM
measValue: 2260
--
molecule: CN(C)Cc1ccc(S(=O)(=O)n2ccc(/C=C/C(=O)NO)c2)cc1 [Resminostat]
unitsLabel: nM
measValue: 1300

// switching to the query molecule
Tested on NK-YS (IL-2 2.5 ng/mL), the item C/C(=C\c1csc(C)n1)[C@@H]1C[C@@H]2O[C@]2(C)CCC[C@H](C)[C@H](O)[C@@H](C)C(=O)C(C)(C)[C@@H](O)CC(=O)N1 [Ixabepilone] showed relative IC50 equal to 348
